read-out: sulfotransferase 2A1 (SULT2A1), SULT2A1 (gene 6822); assay: LTEA_HepaRG_SULT2A1: Life Technologies and Expression Analysis (LTEA) Assay for sulfotransferase 2A1 (SULT2A1) using HepaRG (AID 2283531); conditions: mRNA level, 48 h; actives raise or lower the signal
Activity calls are given as the source filed them. How the source made its calls: active means hit-call score of the fitted dose curve at least 0.9, where 1 is the maximum; inactive means score below 0.9.
Labels: true (1) (active), false (0) (inactive)

compound=CCOP(=S)(OCC)SCCSCC class_label="false (0)"
compound=CC1=NNC(=O)N(/N=C/c2cccnc2)C1 class_label="false (0)"
compound="COP(=O)(OC)OC(Br)C(Cl)(Cl)Br (configuration not stated)" class_label="true (1)"
compound=CCOP(=S)(OCC)Oc1ccc([N+](=O)[O-])cc1 class_label="false (0)"
compound=CC(C)N(C(=O)SCC(Cl)=C(Cl)Cl)C(C)C class_label="false (0)"
compound=CN(C)C(=O)Nc1cccc(C(F)(F)F)c1 class_label="false (0)"
compound=CNc1cnn(-c2cccc(C(F)(F)F)c2)c(=O)c1Cl class_label="false (0)"
compound=CNC(=O)ON=C(C)SC class_label="false (0)"
compound="C#CCC1=C(C)C(OC(=O)C2C(C=C(C)C)C2(C)C)CC1=O (configuration not stated)" class_label="false (0)"
compound=COc1cccc(C(=O)NN(C(=O)c2cc(C)cc(C)c2)C(C)(C)C)c1C class_label="true (1)"
compound="CCOC(=O)CC(SP(=O)(OC)OC)C(=O)OCC (configuration not stated)" class_label="false (0)"
compound=CC[C@H](C)[C@H]1O[C@]2(C=C[C@@H]1C)C[C@@H]1C[C@@H](C/C=C(\C)[C@@H](O[C@H]3C[C@H](OC)[C@@H](O[C@H]4C[C@H](OC)[C@@H](NC)[C@H](C)O4)[C@H](C)O3)[C@@H](C)/C=C/C=C3\CO[C@@H]4[C@H](O)C(C)=C[C@@H](C(=O)O1)[C@]34O)O2 class_label="true (1)"

----------
Read-out: Fatty acid synthase (Homo sapiens)
Test: LTEA_HepaRG_FASN: Life Technologies and Expression Analysis (LTEA) Assay for Fatty Acid Synthase (FASN) using HepaRG (AID 2283448)
Conditions: mRNA level, 48 h; actives raise or lower the signal
Protocol: LTEA_HepaRG is a cell based, multiplexed-readout assay that uses HepaRG, a human liver cell line, with measurements taken at 48 hours after chemical dosing on a 96-well plate.LTEA_HepaRG_FASN is one of 102 assay component(s) measured in the LTEA HepaRG cell culture assay. It is a marker of Steatosis.Data from the assay component LTEA_HepaRG_FASN was analyzed into 1 endpoint. […]
Activity calls are given as the source filed them. How the source made its calls: active means hit-call score of the fitted dose curve at least 0.9, where 1 is the maximum; inactive means score below 0.9.
Possible outcomes: active, inactive

compound=COP(=O)(OC)SCn1c(=O)oc2cc(Cl)cnc21 class_label=inactive
compound=CCOP(=S)(OCC)SCCSCC class_label=inactive
compound=CCCSP(=O)(OCC)SCCC class_label=inactive
compound=CCOP(=O)(OCC)Oc1cc(C)nc(C(C)C)n1 class_label=inactive
compound=CNC(=O)ON=C(C)SC class_label=inactive
compound="CCOP(=O)(NC(C)C)Oc1ccc(SC)c(C)c1 (stereo unspecified)" class_label=inactive
compound="CC(Oc1cccc(Cl)c1)C(=O)O (stereo unspecified)" class_label=inactive
compound=Cc1cc(C2CC2)nc(Nc2ccccc2)n1 class_label=active
compound="CCOC(=O)CC(SP(=O)(OC)OC)C(=O)OCC (stereo unspecified)" class_label=inactive
compound="CC(COc1ccc(Oc2ccccc2)cc1)Oc1ccccn1 (stereo unspecified)" class_label=active
compound=CCOP(=S)(OCC)Oc1cc(C)nc(C(C)C)n1 class_label=inactive
compound="CC(C1CC1)C(O)(Cn1cncn1)c1ccc(Cl)cc1 (stereo unspecified)" class_label=inactive
compound=CCOC(=O)COc1cc(-c2nn(C)c(OC(F)F)c2Cl)c(F)cc1Cl class_label=inactive
compound=C#CC(C)(C)NC(=O)c1cc(Cl)cc(Cl)c1 class_label=active
compound=CC1=NNC(=O)N(/N=C/c2cccnc2)C1 class_label=active
compound=Nc1nc(N)nc(NC2CC2)n1 class_label=inactive
compound=Nc1c(Cl)cc([N+](=O)[O-])cc1Cl class_label=active
compound=C=C(C)[C@H]1Cc2c(ccc3c2O[C@@H]2COc4cc(OC)c(OC)cc4[C@@H]2C3=O)O1 class_label=active
compound=CCNc1nc(Cl)nc(NC(C)(C)C#N)n1 class_label=inactive
compound=CSc1nnc(C(C)(C)C)c(=O)n1N class_label=inactive
compound=CN(C)C(=O)Nc1cccc(C(F)(F)F)c1 class_label=inactive

----------
Read-out: succinate dehydrogenase complex iron sulfur subunit B (SDHB), SDHB (gene 6390)
Experiment: LTEA_HepaRG_SDHB: Life Technologies and Expression Analysis (LTEA) Assay for succinate dehydrogenase complex iron sulfur subunit B (SDHB) using HepaRG (AID 2283528)
Details: mRNA level, 48 h; actives raise or lower the signal
Procedure: LTEA_HepaRG is a cell based, multiplexed-readout assay that uses HepaRG, a human liver cell line, with measurements taken at 48 hours after chemical dosing on a 96-well plate.LTEA_HepaRG_SDHB is one of 102 assay component(s) measured in the LTEA HepaRG cell culture assay. It is a marker of Cell proliferation, survival, death.Data from the assay component LTEA_HepaRG_SDHB was analyzed into 1 endpoint. […]
Active and inactive are the calls of the source. How the source made its calls: active means hit-call score of the fitted dose curve at least 0.9, where 1 is the maximum; inactive means score below 0.9.
Possible outcomes: active, inactive

compound=COc1cc(OC)nc(Sc2cccc(Cl)c2C(=O)O)n1 class_label=inactive
compound=CNC(=O)Oc1cccc2c1OC(C)(C)O2 class_label=inactive
compound=CCCSP(=O)(OCC)SCCC class_label=inactive
compound="CCc1cccc(C)c1N(C(=O)CCl)C(C)COC (configuration not stated)" class_label=inactive
compound=CCNc1nc(Cl)nc(NC(C)(C)C#N)n1 class_label=inactive
compound=CN1COCN(Cc2cnc(Cl)s2)C1=N[N+](=O)[O-] class_label=inactive
compound=CC1=NNC(=O)N(/N=C/c2cccnc2)C1 class_label=inactive
compound="CC(C)=CC1C(C(=O)OCN2C(=O)C3=C(CCCC3)C2=O)C1(C)C (configuration not stated)" class_label=inactive
compound=CCOP(=O)(OCC)Oc1cc(C)nc(C(C)C)n1 class_label=inactive
compound=COP(=O)(OC)SCn1c(=O)oc2cc(Cl)cnc21 class_label=inactive
compound=CCCOCC(=Nc1ccc(Cl)cc1C(F)(F)F)n1ccnc1 class_label=inactive
compound=Cc1nn(-c2cc(NS(C)(=O)=O)c(Cl)cc2Cl)c(=O)n1C(F)F class_label=inactive
compound=CC[C@H](C)[C@H]1O[C@]2(C=C[C@@H]1C)C[C@@H]1C[C@@H](C/C=C(\C)[C@@H](O[C@H]3C[C@H](OC)[C@@H](O[C@H]4C[C@H](OC)[C@@H](NC)[C@H](C)O4)[C@H](C)O3)[C@@H](C)/C=C/C=C3\CO[C@@H]4[C@H](O)C(C)=C[C@@H](C(=O)O1)[C@]34O)O2 class_label=inactive
compound="COP(=O)(OC)OC(Br)C(Cl)(Cl)Br (configuration not stated)" class_label=inactive
compound=CCC(CC)Nc1c([N+](=O)[O-])cc(C)c(C)c1[N+](=O)[O-] class_label=inactive
compound=CCOC(=O)COc1cc(-c2nn(C)c(OC(F)F)c2Cl)c(F)cc1Cl class_label=inactive
compound=CNC(=O)ON=C(C)SC class_label=inactive
compound="COP(=O)(OC)C(O)C(Cl)(Cl)Cl (configuration not stated)" class_label=inactive
compound=CCCCOC(=O)[C@@H](C)Oc1ccc(Oc2ccc(C#N)cc2F)cc1 class_label=inactive
compound=Cc1cc(C2CC2)nc(Nc2ccccc2)n1 class_label=inactive
compound=Nc1nc(N)nc(NC2CC2)n1 class_label=inactive
compound=CCOP(=S)(OCC)Oc1cc(C)nc(C(C)C)n1 class_label=inactive
compound="CCC(=NOC/C=C/Cl)C1=C(O)CC(C2CCOCC2)CC1=O (configuration not stated)" class_label=inactive
compound="CC(COc1ccc(Oc2ccccc2)cc1)Oc1ccccn1 (configuration not stated)" class_label=inactive
compound=CCOP(=S)(OCC)Oc1ccc([N+](=O)[O-])cc1 class_label=inactive
compound=O=c1ccc(=O)[nH][nH]1 class_label=inactive
compound=CCc1cccc(CC)c1N(COC)C(=O)CCl class_label=inactive
compound=CC(C)N(C(=O)SCC(Cl)=C(Cl)Cl)C(C)C class_label=inactive
compound="CCOP(=S)(Oc1cnc(C(C)(C)C)nc1)OC(C)C (configuration not stated)" class_label=inactive
compound=CSc1nnc(C(C)(C)C)c(=O)n1N class_label=inactive
compound="CC(C1CC1)C(O)(Cn1cncn1)c1ccc(Cl)cc1 (configuration not stated)" class_label=inactive
compound=CCCCN(CC)c1c([N+](=O)[O-])cc(C(F)(F)F)cc1[N+](=O)[O-] class_label=inactive
compound="CCOP(=S)(OCC)OC(Cl)C(Cl)(Cl)Cl (configuration not stated)" class_label=inactive
compound=C#CC(C)(C)NC(=O)c1cc(Cl)cc(Cl)c1 class_label=inactive
compound=CC(C)[C@H](C(=O)O[C@H](C#N)c1cccc(Oc2ccccc2)c1)c1ccc(Cl)cc1 class_label=inactive
compound=CCCCOC(=O)c1ccccc1C(=O)O class_label=inactive
compound=C=C(C)[C@H]1Cc2c(ccc3c2O[C@@H]2COc4cc(OC)c(OC)cc4[C@@H]2C3=O)O1 class_label=active

Taken from PubChem BioAssay (EPA / NIEHS).
